Measured GI50 values are reported for all entries that follow.
test-target: Ba/F3 (EGFR^del19/T790M/C797S) triple-mutant cells (Homo sapiens, UniProt P00533, T790M/C797S, cells depend on it, form not given)
Sequence (P00533 with tags, fused parts or gaps DEL746-750/T790M/C797S, form open): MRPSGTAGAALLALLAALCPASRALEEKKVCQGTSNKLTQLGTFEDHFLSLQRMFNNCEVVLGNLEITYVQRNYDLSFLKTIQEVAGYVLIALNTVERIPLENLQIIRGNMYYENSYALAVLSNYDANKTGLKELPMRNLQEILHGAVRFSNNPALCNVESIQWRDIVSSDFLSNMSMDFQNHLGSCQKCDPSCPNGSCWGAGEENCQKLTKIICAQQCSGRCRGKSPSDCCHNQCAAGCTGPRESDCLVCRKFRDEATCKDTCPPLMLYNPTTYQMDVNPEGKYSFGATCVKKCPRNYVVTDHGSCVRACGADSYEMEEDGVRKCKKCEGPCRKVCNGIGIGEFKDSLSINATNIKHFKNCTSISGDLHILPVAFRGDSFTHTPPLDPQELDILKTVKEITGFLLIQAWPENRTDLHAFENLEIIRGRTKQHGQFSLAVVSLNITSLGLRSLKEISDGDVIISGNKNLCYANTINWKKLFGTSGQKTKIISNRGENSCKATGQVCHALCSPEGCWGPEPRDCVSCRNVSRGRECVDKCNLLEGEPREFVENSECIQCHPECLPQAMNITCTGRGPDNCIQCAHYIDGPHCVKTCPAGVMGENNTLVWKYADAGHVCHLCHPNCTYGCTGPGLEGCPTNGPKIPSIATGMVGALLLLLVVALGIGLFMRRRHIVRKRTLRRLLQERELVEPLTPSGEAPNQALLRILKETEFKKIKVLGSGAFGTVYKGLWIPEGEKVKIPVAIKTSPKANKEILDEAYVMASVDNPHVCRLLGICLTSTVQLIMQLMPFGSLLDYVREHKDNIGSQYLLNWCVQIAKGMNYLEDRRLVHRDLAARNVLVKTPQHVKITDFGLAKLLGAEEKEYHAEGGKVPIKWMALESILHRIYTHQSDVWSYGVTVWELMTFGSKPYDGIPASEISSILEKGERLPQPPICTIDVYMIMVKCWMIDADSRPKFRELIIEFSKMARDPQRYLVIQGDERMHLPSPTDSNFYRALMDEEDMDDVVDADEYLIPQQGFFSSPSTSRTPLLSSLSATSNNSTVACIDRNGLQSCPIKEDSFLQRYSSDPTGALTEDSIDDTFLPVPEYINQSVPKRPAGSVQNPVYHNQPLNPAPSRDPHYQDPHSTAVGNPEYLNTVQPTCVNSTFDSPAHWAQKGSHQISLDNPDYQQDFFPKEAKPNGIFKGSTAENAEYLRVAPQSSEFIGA
test-details: Antiproliferative activity against Ba/F3 (EGFR del19/T790M/C797S) triple-mutant cells, Cell Titer Glow
Type: cell-based
assay-conditions: three days after addition of compounds; read-out: Antiproliferative activity BaF3(EGFR^del19/T790M/C797S) IC50

Here are 2 molecules together with their reported answers.
CN1CCN(C2CCN(c3ccc(Nc4nc(NCCS(C)(=O)=O)c(-c5ccccc5)nc4C(N)=O)cc3)CC2)CC1 [compound 54] :: > 100 nM
CN1CCN(C2CCN(c3ccc(Nc4nc(NC5CCOCC5)c(-c5ccc(O)cc5)nc4C(N)=O)cc3)CC2)CC1 [compound 96] :: > 100 nM

Read the next record carefully.
Briefly, GI50 measured for CCc1nc(C(N)=O)c(Nc2ccc(N3CCC(N4CCN(C)CC4)CC3)c(OC)c2)nc1NC1CCOCC1 [Gilteritinib, gilteritinib, reference compound] : > 500 nM
